target under test: T1, cynomolgus monkey CD3 E&D complex protein (Sino Biological Inc., CT032-00323H) (cynomolgus monkey, UniProt Q95LI5 22-117; Q95LI8 22-105)
T1 construct: bought heterodimer
T1 sequence (Q95LI5 22-117, chain 1 of 2): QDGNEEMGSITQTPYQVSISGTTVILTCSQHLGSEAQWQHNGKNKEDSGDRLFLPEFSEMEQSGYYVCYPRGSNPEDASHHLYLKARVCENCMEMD
T1 sequence (Q95LI8 22-105, chain 2 of 2): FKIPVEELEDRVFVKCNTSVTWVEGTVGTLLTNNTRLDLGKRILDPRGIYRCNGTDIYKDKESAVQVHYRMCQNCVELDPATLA
test summary: BLI, antibody on sensor
measured quantity: kon (M⁻¹ s⁻¹)
State just the number; it will be interpreted in M⁻¹ s⁻¹.

Past entries and their recorded results:
INSERT INTO assay_data (binder, measured_quantity, unit_name, assay_value) VALUES
  ('hzsp34.38 (antibody, human IgG1, kappa, L234A L235A, V domains shown, IgG1 L234A L235A, kappa) VH: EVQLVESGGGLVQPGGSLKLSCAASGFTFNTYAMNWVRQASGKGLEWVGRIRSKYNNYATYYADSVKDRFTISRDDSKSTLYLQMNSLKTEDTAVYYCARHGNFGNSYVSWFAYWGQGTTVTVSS VL: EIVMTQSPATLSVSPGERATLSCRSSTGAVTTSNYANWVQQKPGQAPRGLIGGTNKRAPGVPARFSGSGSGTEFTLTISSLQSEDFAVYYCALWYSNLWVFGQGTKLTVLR', 'kon', 'M⁻¹ s⁻¹', 288000),
  ('hzsp34.20 (antibody, human IgG1, lambda, L234A L235A, V domains shown, IgG1 L234A L235A, lambda) VH: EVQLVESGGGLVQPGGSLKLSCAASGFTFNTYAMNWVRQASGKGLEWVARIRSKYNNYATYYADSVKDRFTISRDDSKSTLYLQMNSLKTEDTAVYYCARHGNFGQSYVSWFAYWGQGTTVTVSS VL: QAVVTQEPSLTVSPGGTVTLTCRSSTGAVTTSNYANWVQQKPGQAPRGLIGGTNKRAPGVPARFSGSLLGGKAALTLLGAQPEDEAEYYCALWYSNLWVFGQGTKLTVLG', 'kon', 'M⁻¹ s⁻¹', '1.46e+06'),
  ('hzsp34.22 (antibody, human IgG1, lambda, L234A L235A, V domains shown, IgG1 L234A L235A, lambda) VH: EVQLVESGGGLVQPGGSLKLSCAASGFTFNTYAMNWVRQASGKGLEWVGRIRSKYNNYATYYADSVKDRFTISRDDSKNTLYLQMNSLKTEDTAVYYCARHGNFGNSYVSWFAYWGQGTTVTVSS VL: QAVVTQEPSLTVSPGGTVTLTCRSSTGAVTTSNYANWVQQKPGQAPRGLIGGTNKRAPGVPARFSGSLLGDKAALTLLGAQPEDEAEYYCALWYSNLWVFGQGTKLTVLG', 'kon', 'M⁻¹ s⁻¹', '1.52e+06'),
  ('hzsp34.13 (antibody, human IgG1, lambda, L234A L235A, V domains shown, IgG1 L234A L235A, lambda) VH: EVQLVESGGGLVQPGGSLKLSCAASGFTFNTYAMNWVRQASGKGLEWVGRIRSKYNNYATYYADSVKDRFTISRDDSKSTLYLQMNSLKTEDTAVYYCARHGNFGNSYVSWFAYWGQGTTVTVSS VL: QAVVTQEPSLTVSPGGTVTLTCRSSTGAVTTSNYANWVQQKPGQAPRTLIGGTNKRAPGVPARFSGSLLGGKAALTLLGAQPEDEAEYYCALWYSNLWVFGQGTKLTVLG', 'kon', 'M⁻¹ s⁻¹', 937000),
  ('hzsp34.18 (antibody, human IgG1, lambda, L234A L235A, V domains shown, IgG1 L234A L235A, lambda) VH: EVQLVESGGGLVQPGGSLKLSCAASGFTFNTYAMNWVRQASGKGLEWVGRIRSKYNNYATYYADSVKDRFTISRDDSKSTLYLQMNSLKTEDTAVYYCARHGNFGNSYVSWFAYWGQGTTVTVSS VL: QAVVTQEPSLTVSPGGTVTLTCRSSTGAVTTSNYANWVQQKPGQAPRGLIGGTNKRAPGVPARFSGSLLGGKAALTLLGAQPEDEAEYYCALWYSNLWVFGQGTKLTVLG', 'kon', 'M⁻¹ s⁻¹', '1.31e+06'),
  ('hzsp34.37 (antibody, human IgG1, kappa, L234A L235A, V domains shown, IgG1 L234A L235A, kappa) VH: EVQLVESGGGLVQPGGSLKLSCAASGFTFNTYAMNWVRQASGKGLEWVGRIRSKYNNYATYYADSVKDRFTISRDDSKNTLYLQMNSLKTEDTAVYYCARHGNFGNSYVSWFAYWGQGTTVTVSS VL: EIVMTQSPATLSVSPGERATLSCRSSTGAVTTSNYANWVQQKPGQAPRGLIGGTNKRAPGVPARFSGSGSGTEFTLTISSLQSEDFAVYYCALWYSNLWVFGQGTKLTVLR', 'kon', 'M⁻¹ s⁻¹', 321000);

Challenge: Recorded kon for hzsp34.45 (antibody, human IgG1, kappa, L234A L235A, V domains shown, IgG1 L234A L235A, kappa) VH: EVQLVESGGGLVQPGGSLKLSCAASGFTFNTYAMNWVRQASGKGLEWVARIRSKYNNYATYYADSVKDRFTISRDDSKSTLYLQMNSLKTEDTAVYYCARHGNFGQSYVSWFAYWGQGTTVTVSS VL: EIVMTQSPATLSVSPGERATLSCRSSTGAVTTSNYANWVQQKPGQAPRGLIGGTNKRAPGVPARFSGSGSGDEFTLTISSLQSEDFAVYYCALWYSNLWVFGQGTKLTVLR , please?
Response given: 194000

Challenge: Recorded kon for hzsp34.42 (antibody, human IgG1, kappa, L234A L235A, V domains shown, IgG1 L234A L235A, kappa) VH: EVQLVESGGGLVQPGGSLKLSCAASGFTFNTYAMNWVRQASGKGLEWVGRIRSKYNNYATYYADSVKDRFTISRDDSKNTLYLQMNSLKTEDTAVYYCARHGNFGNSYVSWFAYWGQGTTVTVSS VL: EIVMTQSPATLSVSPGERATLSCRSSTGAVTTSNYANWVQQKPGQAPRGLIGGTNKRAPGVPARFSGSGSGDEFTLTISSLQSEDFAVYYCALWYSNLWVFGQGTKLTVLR , please?
Response given: 243000

Challenge: If you can, please state the reported kon value of hzsp34.12 (antibody, human IgG1, lambda, L234A L235A, V domains shown, IgG1 L234A L235A, lambda) VH: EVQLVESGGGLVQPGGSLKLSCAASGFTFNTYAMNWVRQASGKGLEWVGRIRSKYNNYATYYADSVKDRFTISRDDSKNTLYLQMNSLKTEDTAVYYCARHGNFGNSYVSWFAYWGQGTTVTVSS VL: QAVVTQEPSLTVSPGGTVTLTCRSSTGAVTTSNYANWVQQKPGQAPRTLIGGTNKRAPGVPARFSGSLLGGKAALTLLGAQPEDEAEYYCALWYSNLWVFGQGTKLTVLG .
Response given: 479000

Challenge: For the binder hzsp34.25 (antibody, human IgG1, lambda, L234A L235A, V domains shown, IgG1 L234A L235A, lambda) VH: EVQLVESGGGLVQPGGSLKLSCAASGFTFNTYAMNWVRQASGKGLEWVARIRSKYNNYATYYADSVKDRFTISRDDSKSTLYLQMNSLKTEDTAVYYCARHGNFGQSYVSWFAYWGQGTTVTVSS VL: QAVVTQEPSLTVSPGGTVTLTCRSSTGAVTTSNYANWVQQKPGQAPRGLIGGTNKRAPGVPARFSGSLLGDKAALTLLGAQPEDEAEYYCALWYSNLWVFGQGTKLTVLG , what kon is on record?
Response given: 1.07e+06

Challenge: Need kon, item hzsp34.44 (antibody, human IgG1, kappa, L234A L235A, V domains shown, IgG1 L234A L235A, kappa) VH: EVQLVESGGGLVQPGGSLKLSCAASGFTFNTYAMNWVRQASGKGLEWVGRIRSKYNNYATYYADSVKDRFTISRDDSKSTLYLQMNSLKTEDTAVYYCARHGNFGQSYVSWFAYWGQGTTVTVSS VL: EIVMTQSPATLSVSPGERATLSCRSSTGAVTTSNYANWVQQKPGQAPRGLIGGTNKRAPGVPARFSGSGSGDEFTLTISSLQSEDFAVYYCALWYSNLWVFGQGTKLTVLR
Response given: 241000

Reference source: patent US20230374132A1
